molecular target: Gal(b1-3)GlcNAc(b1-3)Gal(b1-4)[Fuc(a1-3)]GlcNAc; assay: glycan array binding signal (z-score within array); higher = stronger binding; settings: glycan notation: IUPAC condensed, linker removed
This excerpt belongs to a sample that is enriched for the strongest signals.
Each record here notes measured glycan array binding signal (z-score).
quantity_kind: glycan array binding signal (z-score)

* SynCAM (Mus musculus) (protein) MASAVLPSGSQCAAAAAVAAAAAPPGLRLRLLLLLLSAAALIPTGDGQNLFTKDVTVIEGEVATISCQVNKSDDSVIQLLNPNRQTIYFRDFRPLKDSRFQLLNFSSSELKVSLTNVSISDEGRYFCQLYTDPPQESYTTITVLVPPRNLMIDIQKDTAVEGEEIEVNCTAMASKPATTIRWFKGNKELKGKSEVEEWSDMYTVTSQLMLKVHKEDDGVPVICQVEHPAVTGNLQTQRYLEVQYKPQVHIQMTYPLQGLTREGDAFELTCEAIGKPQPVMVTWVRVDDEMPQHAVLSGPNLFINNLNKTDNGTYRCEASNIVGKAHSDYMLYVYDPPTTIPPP | -1.13
* Arath Fbox (Arabidopsis thaliana), NP_178341.1 (protein) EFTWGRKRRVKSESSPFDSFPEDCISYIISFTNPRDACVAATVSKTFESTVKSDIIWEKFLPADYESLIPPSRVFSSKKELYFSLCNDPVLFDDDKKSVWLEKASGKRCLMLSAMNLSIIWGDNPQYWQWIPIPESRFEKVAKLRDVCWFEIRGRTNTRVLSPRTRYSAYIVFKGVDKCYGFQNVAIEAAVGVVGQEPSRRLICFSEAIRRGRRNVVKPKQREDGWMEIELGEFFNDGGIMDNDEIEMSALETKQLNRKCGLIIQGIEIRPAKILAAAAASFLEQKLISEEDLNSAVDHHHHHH | -0.717
* Gal 8 (Mus musculus), Q9JL15 (protein) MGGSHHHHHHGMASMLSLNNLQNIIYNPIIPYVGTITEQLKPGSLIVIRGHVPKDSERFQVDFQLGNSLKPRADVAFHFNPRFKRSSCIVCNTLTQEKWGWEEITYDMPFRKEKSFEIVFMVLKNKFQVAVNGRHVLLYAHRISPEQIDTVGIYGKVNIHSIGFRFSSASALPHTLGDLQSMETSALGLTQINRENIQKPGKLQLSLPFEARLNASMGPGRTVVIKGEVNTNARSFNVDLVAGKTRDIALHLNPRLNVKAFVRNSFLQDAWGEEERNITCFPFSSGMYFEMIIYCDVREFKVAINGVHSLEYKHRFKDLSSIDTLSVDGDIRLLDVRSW | 0.099
